Measured values drawn from the METLIN SMRT retention time set (Domingo-Almenara et al. 2019) for this set.

assay: gradient 5% acetonitrile 3 min, to 50% in 2 min, to 85% in 15 min, held 3 min, 100 µL/min; conditions: column: Zorbax Extend-C18 2.1 x 50 mm; eluents: water / acetonitrile, 0.1% formic acid
Exercise: for every item that follows, state its recorded RP-LC retention time.
Return type: number; implicit unit s.

query: RP-LC retention time for `CC1=C(c2ccccc2)S(=O)(=O)N=C1N1CCCN(C(=O)CC(C)C)CC1` ?
result: 803

query: Can you handle `O=C(NCc1ccccc1C(F)(F)F)c1ccc2c(c1)ncn2CCN1CCCC1` next?
result: 599

query: Can you handle `Cc1nn2c(CNC(=O)C3CCC3)c(-c3ccccc3)nc2s1` next?
result: 743

query: Can you handle `COc1ccc(-c2nc(-c3ccc4ncn(C)c4c3)no2)cc1` next?
result: 732
